Reported Fa (fraction affected) values follow for various molecules
- System: A-549 lung adenocarcinoma cell line
- assay protocol: DIMSCAN cytotoxicity, fenretinide + L-threo-sphinganines 3:1 (Example B13)
- Type: cell-based, human
- test parameters: 4-HPR 3 μM + L-threo-sphinganine 1 μM, 96 h
experimental readout: Fa (fraction affected)

> print(dat)
                                   molecule    experimental.readout  measurement
1              CCCCCCCCC[C@H](O)[C@@H](N)CO  Fa (fraction affected)        0.010
2     CCCCCCCCCCCCCCCCCC[C@H](O)[C@@H](N)CO  Fa (fraction affected)        0.044
3         CCCCCCCCCCCCCC[C@H](O)[C@@H](N)CO  Fa (fraction affected)        0.010
4       CCCCCCCCCCCCCCCC[C@H](O)[C@@H](N)CO  Fa (fraction affected)        0.007
5      CCCCCCCCCCCCCCCCC[C@H](O)[C@@H](N)CO  Fa (fraction affected)        0.000
6            CCCCCCCCCCC[C@H](O)[C@@H](N)CO  Fa (fraction affected)         0.02
7  CCCCCCCCCCCCCCC[C@H](O)[C@@H](N)CO [C18, (2S,3S)-2-amino-1,3-octadecanediol, reference compound]  Fa (fraction affected)         0.05
8           CCCCCCCCCCCC[C@H](O)[C@@H](N)CO  Fa (fraction affected)        0.000

====

- Tested on: CHLA-266 primitive neuroectodermal tumor (PNET) cell line
- assay protocol: DIMSCAN cytotoxicity, fenretinide + L-threo-sphinganines 3:1 (Example B9)
- Assay type: cell-based, human
- test parameters: 4-HPR 6 μM + L-threo-sphinganine 2 μM, 96 h
Below, each of the compounds is paired with its reported CI (Combination Index) value.
experimental readout: CI (Combination Index)

> print(dat)
                                   compound                             target.system  measurement
1         CCCCCCCCCCCCCC[C@H](O)[C@@H](N)CO  CHLA-266 primitive neuroectodermal tumor (PNET) cell line          0.5
2              CCCCCCCCC[C@H](O)[C@@H](N)CO  CHLA-266 primitive neuroectodermal tumor (PNET) cell line          0.7
3            CCCCCCCCCCC[C@H](O)[C@@H](N)CO  CHLA-266 primitive neuroectodermal tumor (PNET) cell line          1.1
4  CCCCCCCCCCCCCCC[C@H](O)[C@@H](N)CO [C18, (2S,3S)-2-amino-1,3-octadecanediol, reference compound]  CHLA-266 primitive neuroectodermal tumor (PNET) cell line          1.1
5           CCCCCCCCCCCC[C@H](O)[C@@H](N)CO  CHLA-266 primitive neuroectodermal tumor (PNET) cell line          1.2

====

- System: PC-3 prostate adenocarcinoma cell line
- assay protocol: DIMSCAN cytotoxicity, fenretinide + L-threo-sphinganines 3:1 (Example B17)
- Type: cell-based, human
- test parameters: 4-HPR 9 μM + L-threo-sphinganine 3 μM
Mark YES for reported CI of 0.8 or greater; mark NO for anything smaller.

> print(dat)
                                   compound  assigned.class
1  CCCCCCCCCCCCCCCCCC[C@H](O)[C@@H](N)CO [C21]             YES
2  CCCCCCCCCCCCCCCCC[C@H](O)[C@@H](N)CO [C20, (2S,3S)-2-amino-1,3-icosanediol]              NO
3  CCCCCCCCCCCCCCC[C@H](O)[C@@H](N)CO [C18, (2S,3S)-2-amino-1,3-octadecanediol, reference compound]              NO
4  CCCCCCCCCCCCCCCC[C@H](O)[C@@H](N)CO [C19, (2S,3S)-2-amino-1,3-nonadecanediol]              NO
5  CCCCCCCCCCCCCC[C@H](O)[C@@H](N)CO [C17, (2S,3S)-2-amino-1,3-heptadecanediol]              NO
6     CCCCCCCCCCCC[C@H](O)[C@@H](N)CO [C15]             YES
7      CCCCCCCCCCC[C@H](O)[C@@H](N)CO [C14]             YES

====

- Test system: A-2058 melanoma cell line
- assay protocol: DIMSCAN cytotoxicity, fenretinide + L-threo-sphinganines 3:1 (Example B11)
- Assay type: cell-based, human
- test parameters: 4-HPR 6 μM + L-threo-sphinganine 2 μM, 96 h
Recorded CI (Combination Index) for the following compounds
experimental readout: CI (Combination Index)

> print(dat)
                                   compound  result.operator  measurement
1           CCCCCCCCCCCC[C@H](O)[C@@H](N)CO                =          1.6
2              CCCCCCCCC[C@H](O)[C@@H](N)CO                =          0.9
3     CCCCCCCCCCCCCCCCCC[C@H](O)[C@@H](N)CO                =          1.9
4  CCCCCCCCCCCCCCC[C@H](O)[C@@H](N)CO [C18, (2S,3S)-2-amino-1,3-octadecanediol, reference compound]                >            1
5            CCCCCCCCCCC[C@H](O)[C@@H](N)CO                =          1.4
6         CCCCCCCCCCCCCC[C@H](O)[C@@H](N)CO                =          1.4
7      CCCCCCCCCCCCCCCCC[C@H](O)[C@@H](N)CO                =          1.7
8       CCCCCCCCCCCCCCCC[C@H](O)[C@@H](N)CO                =          1.8

====

# Lookup of reported CI (Combination Index) keyed by entry
- Test system: U-266 Multiple Myeloma cell line
- assay protocol: DIMSCAN cytotoxicity, fenretinide + L-threo-sphinganines 3:1 (Example B3)
- Type: cell-based, human
- test parameters: 4-HPR 6 μM + L-threo-sphinganine 2 μM, 96 h
experimental readout: CI (Combination Index)

> print(dat)
                                   molecule    experimental.readout  measurement
1            CCCCCCCCCCC[C@H](O)[C@@H](N)CO  CI (Combination Index)          1.0
2  CCCCCCCCCCCCCCC[C@H](O)[C@@H](N)CO [C18, (2S,3S)-2-amino-1,3-octadecanediol, reference compound]  CI (Combination Index)          1.3
3         CCCCCCCCCCCCCC[C@H](O)[C@@H](N)CO  CI (Combination Index)          0.9
4      CCCCCCCCCCCCCCCCC[C@H](O)[C@@H](N)CO  CI (Combination Index)          0.4
5           CCCCCCCCCCCC[C@H](O)[C@@H](N)CO  CI (Combination Index)          1.2
6              CCCCCCCCC[C@H](O)[C@@H](N)CO  CI (Combination Index)          0.9
7     CCCCCCCCCCCCCCCCCC[C@H](O)[C@@H](N)CO  CI (Combination Index)          0.6
8       CCCCCCCCCCCCCCCC[C@H](O)[C@@H](N)CO  CI (Combination Index)          0.9

====

- System: OE-33 esophageal adenocarcinoma cell line
- assay protocol: DIMSCAN cytotoxicity, fenretinide + L-threo-sphinganines 3:1 (Example B19)
- Format: cell-based, human
- test parameters: 4-HPR 9 μM + L-threo-sphinganine 3 μM
experimental readout: Fa

> print(dat)
                          smiles.string                             target.system  measurement
1   CCCCCCCCCCCCCCCC[C@H](O)[C@@H](N)CO  OE-33 esophageal adenocarcinoma cell line        0.989
2          CCCCCCCCC[C@H](O)[C@@H](N)CO  OE-33 esophageal adenocarcinoma cell line        0.925
3  CCCCCCCCCCCCCCCCC[C@H](O)[C@@H](N)CO  OE-33 esophageal adenocarcinoma cell line        0.993
4     CCCCCCCCCCCCCC[C@H](O)[C@@H](N)CO  OE-33 esophageal adenocarcinoma cell line        0.991
